# procedure_summary: RP, Thermo Scientific Acclaim RSLC 120 C18, 100 × 2.1 mm, 2.2 µm, 30 °C, 0.2 mL/min, estimated dead time 1.1 min; A: 90% water + 10% methanol + 0.01% formic acid + 5 mM ammonium formate, pH 3.61; B: methanol + 0.01% formic acid + 5 mM ammonium formate, pH 3.61; gradient (min/%B) 0/1 1/1 2/39 13/99.9 15/99.9 15.1/1 20.1/1
# condition_set: stereoisomer not certain
Binary label based on LC retention time with cut-off 10 min: below gives true (1), not below gives false (0).

| compound | class_label |
| --- | --- |
| CC1(C)OC2CC3C4CCC5=CC(=O)C=CC5(C)C4C(O)CC3(C)C2(C(=O)CO)O1 (stereo unspecified) [Desonide] | true (1) |

Problem: Hi there! Is LC retention time for COC(=O)N(C(=O)N1COC2(C(=O)OC)Cc3cc(Cl)ccc3C2=N1)c1ccc(OC(F)(F)F)cc1 (stereo unspecified) below 10 min, do you know?
Result: false (0)

Problem: Hi there! Is LC retention time for CCOC(=O)C(C)Oc1ccc(Oc2cnc3cc(Cl)ccc3n2)cc1 (stereo unspecified) below 10 min, do you know?
Result: false (0)

Problem: Hi there! Is LC retention time for CCc1cccc(CC)c1N(COC)C(=O)CCl below 10 min, do you know?
Result: false (0)

* * *

# procedure_summary: RP, Thermo Scientific Acclaim RSLC 120 C18, 100 × 2.1 mm, 2.2 µm, 30 °C, 0.2 mL/min, estimated dead time 1.1 min; A: water + 0.1% formic acid, pH 2.6; B: methanol + 0.1% formic acid, pH 2.6; gradient (min/%B) 0/10 4/50 17/95 25/95 25.1/10 30/10
# condition_set: stereoisomer not certain
result_type: LC retention time (min)
Respond with the bare value in min.

Illustrative cases are given below, each with its answer.
| compound | display_unit | LC retention time |
| --- | --- | --- |
| O=P(Oc1ccccc1)(Oc1ccccc1)Oc1ccccc1 [Phosphate-Triphenyl] | min | 14.3 |
| CCC(C)C1OC2(C=CC1C)CC1CC(CC=C(C)C(OC3CC(OC)C(OC4CC(OC)C(O)C(C)O4)C(C)O3)C(C)C=CC=C3COC4C(O)C(C)=CC(C(=O)O1)C34O)O2 (centres undefined) [Avermectin] | min | 18.7 |
| NC(=O)c1ccccc1Oc1ccccc1 [Phenoxybenzamide] | min | 9.15 |

Okay, next one:
Problem: # get_value(readout='LC retention time', item= Cn1c(=O)c2[nH]cnc2n(C)c1=O [Theophylline] )
Result: 4.14

* * *

# procedure_summary: RP, Thermo Scientific Acclaim RSLC 120 C18, 100 × 2.1 mm, 2.2 µm, 30 °C, 0.2 mL/min, estimated dead time 1.1 min; A: 90% water + 10% methanol + 0.01% formic acid + 5 mM ammonium formate, pH 3.61; B: methanol + 0.01% formic acid + 5 mM ammonium formate, pH 3.61; gradient (min/%B) 0/1 1/1 2/39 13/99.9 15/99.9 15.1/1 20.1/1
# condition_set: stereoisomer not certain
# key: entry, value: LC retention time
Respond with the bare value in min.

Illustrative cases are given below, each with its answer.
| compound | display_unit | LC retention time |
| --- | --- | --- |
| CCCCCn1nc(C(=O)c2cccc3ccccc23)c2ccccc21 | min | 13.1 |
| Cc1cc(O)cc(C)c1S(C)=O (stereo not given) [Methiocarb-sulfoxide phenol] | min | 4.63 |
| COP(=O)(OC)C(O)C(Cl)(Cl)Cl (stereo not given) | min | 5.23 |
| CNC(C)C(=O)c1ccc(Br)cc1 (stereo not given) | min | 5.05 |
| CNC(=O)ON=C(C)C(C)S(C)(=O)=O (stereo not given) | min | 3.66 |
| c1ccc(C(CCN2CCCCC2)c2ccccc2)cc1 | min | 6.82 |
| c1ccc(CN(CC2=NCCN2)c2ccccc2)cc1 | min | 6.41 |
| O=C1CN=C(c2ccccc2F)c2cc([N+](=O)[O-])ccc2N1 | min | 7.35 |

Problem: # get_value(readout='LC retention time', item= CC(O)Cn1cnc2c1c(=O)n(C)c(=O)n2C (stereo not given) )
Result: 4.34

Problem: # get_value(readout='LC retention time', item= COP(=S)(NC(C)C)Oc1ccccc1C(=O)OC(C)C (stereo not given) )
Result: 11.7

Problem: # get_value(readout='LC retention time', item= O=C(NC(=O)c1c(F)cccc1F)Nc1cc(Cl)c(OC(F)(F)C(F)C(F)(F)F)c(Cl)c1F (stereo not given) )
Result: 12.7

Problem: # get_value(readout='LC retention time', item= Cc1ccccc1N1C(=O)c2cc(S(N)(=O)=O)c(Cl)cc2NC1C (stereo not given) )
Result: 6.08

Problem: # get_value(readout='LC retention time', item= CC(C)C(Nc1ccc(C(F)(F)F)cc1Cl)C(=O)OC(C#N)c1cccc(Oc2ccccc2)c1 (stereo not given) [Fluvalinate (tau-)] )
Result: 13.5

Problem: # get_value(readout='LC retention time', item= CN1C2CCC1CC(OC(=O)c1c[nH]c3ccccc13)C2 (stereo not given) )
Result: 5.09

Problem: # get_value(readout='LC retention time', item= CC(C)n1c(C=CC(O)CC(O)CC(=O)O)c(-c2ccc(F)cc2)c2ccccc21 (stereo not given) )
Result: 10.9

Problem: # get_value(readout='LC retention time', item= CCOC(=O)C(CCc1ccccc1)NC(C)C(=O)N1CCCC1C(=O)O (stereo not given) )
Result: 6.83

Problem: # get_value(readout='LC retention time', item= COC(=O)c1ccccc1S(=O)(=O)NC(=O)N(C)c1nc(C)nc(OC)n1 )
Result: 7.94
